// data source = ChEMBL document CHEMBL1143268

Each entry below carries its reported log10 of t1/2.
- Tested on: Plasma
- Type: ADME, cell-free
- settings: rat
readout type: log10 of t1/2 (log10 of the value in min)

| compound | readout type | quantitative readout |
| --- | --- | --- |
| COC(=O)[C@@H](NP(=O)(OC[C@H]1O[C@@H](n2cnc3c(N)ncnc32)[C@@H](O)[C@@H]1O)Oc1ccccc1)C(C)C (stereo partly specified) | log10 of t1/2 | 1.26 |
| CC(C)[C@H](N)C(=O)OC[C@H]1O[C@@H](n2cnc3c(N)ncnc32)[C@@H](O)[C@@H]1O | log10 of t1/2 | 0.89 |
| CC[C@H](C)[C@H](N)C(=O)OC[C@H]1O[C@@H](n2cnc3c(N)ncnc32)[C@@H](O)[C@@H]1O | log10 of t1/2 | 2.33 |
| COC(=O)[C@H](NP(=O)(OC[C@H]1O[C@@H](n2cnc3c(N)ncnc32)[C@@H](O)[C@@H]1O)Oc1ccccc1)C(C)C (stereo partly specified) | log10 of t1/2 | 1.32 |
| CC(C)[C@@H](N)C(=O)OC[C@H]1O[C@@H](n2cnc3c(N)ncnc32)[C@@H](O)[C@@H]1O | log10 of t1/2 | 2.79 |
| CC[C@H](C)[C@@H](N)C(=O)OC[C@H]1O[C@@H](n2cnc3c(N)ncnc32)[C@@H](O)[C@@H]1O | log10 of t1/2 | 1.98 |

----------
- Tested on: Cowpox virus
- method: Antiviral activity against Cowpox virus infected in human foreskin fibroblasts by plaque assay
- Format: functional, organism-based
pEC50: −log10 of the molar value.

| smiles | pEC50 |
| --- | --- |
| CC(C)C[C@H](N)C(=O)OC[C@H]1O[C@@H](n2cnc3c(N)ncnc32)[C@@H](O)[C@@H]1O | 5.52 |
| CC(C)[C@H](N)C(=O)OC[C@H]1O[C@@H](n2cnc3c(N)ncnc32)[C@@H](O)[C@@H]1O | 5.40 |
| Nc1ncnc2c1ncn2[C@@H]1O[C@H](COC(=O)[C@H](N)CC(=O)O)[C@@H](O)[C@@H]1O | 5.40 |

----------
Each entry below carries its reported solubility.
- method: Solubility in water
- Format: physicochemical
readout type: solubility

| compound | readout type | result |
| --- | --- | --- |
| COC(=O)[C@@H](NP(=O)(OC[C@H]1O[C@@H](n2cnc3c(N)ncnc32)[C@@H](O)[C@@H]1O)Oc1ccccc1)C(C)C (stereo partly drawn) | solubility | > 10000 µg/mL |
| CC(C)[C@H](N)C(=O)OC[C@H]1O[C@@H](n2cnc3c(N)ncnc32)[C@@H](O)[C@@H]1O | solubility | > 10000 µg/mL |
| CC(C)C[C@H](N)C(=O)OC[C@H]1O[C@@H](n2cnc3c(N)ncnc32)[C@@H](O)[C@@H]1O | solubility | > 10000 µg/mL |
| Nc1ncnc2c1ncn2[C@@H]1O[C@H](COC(=O)[C@@H](N)Cc2ccccc2)[C@@H](O)[C@@H]1O | solubility | > 10000 µg/mL |
| CC(C)C[C@@H](N)C(=O)OC[C@H]1O[C@@H](n2cnc3c(N)ncnc32)[C@@H](O)[C@@H]1O | solubility | > 10000 µg/mL |
| Nc1ncnc2c1ncn2[C@@H]1O[C@H](COC(=O)[C@H](N)CC(=O)O)[C@@H](O)[C@@H]1O | solubility | > 10000 µg/mL |
| COC(=O)[C@H](NP(=O)(OC[C@H]1O[C@@H](n2cnc3c(N)ncnc32)[C@@H](O)[C@@H]1O)Oc1ccccc1)C(C)C (stereo partly drawn) | solubility | > 10000 µg/mL |
| CC[C@H](C)[C@@H](N)C(=O)OC[C@H]1O[C@@H](n2cnc3c(N)ncnc32)[C@@H](O)[C@@H]1O | solubility | > 10000 µg/mL |

----------
- method: Permeability from apical to basolateral side in human Caco-2 cells after 21 days
- Type: ADME, cell-based
- settings: read-out: permeability
Each entry below carries its reported Papp A→B.
readout type: Papp A→B

| molecule | result |
| --- | --- |
| Nc1ncnc2c1ncn2[C@@H]1O[C@H](CO)[C@@H](O)[C@@H]1O [VIDARABINE] | 0.083 ×10⁻⁶ cm/s |
| CC(C)[C@@H](N)C(=O)OC[C@H]1O[C@@H](n2cnc3c(N)ncnc32)[C@@H](O)[C@@H]1O | 0.601 ×10⁻⁶ cm/s |
| Nc1ncnc2c1ncn2[C@@H]1O[C@H](COC(=O)[C@@H](N)Cc2ccccc2)[C@@H](O)[C@@H]1O | 0.668 ×10⁻⁶ cm/s |
| CC[C@H](C)[C@H](N)C(=O)OC[C@H]1O[C@@H](n2cnc3c(N)ncnc32)[C@@H](O)[C@@H]1O | 1.03 ×10⁻⁶ cm/s |

----------
- Test system: Intestine
- method: Metabolic stability in rat intestinal homogenate
- Type: ADME, tissue-based
- settings: tissue homogenate
The threshold is inclusive: t1/2 of exactly 30 min counts as TRUE; values below receive FALSE.

| molecule | tested target | qualitative label |
| --- | --- | --- |
| CC(C)[C@H](N)C(=O)OC[C@H]1O[C@@H](n2cnc3c(N)ncnc32)[C@@H](O)[C@@H]1O | Intestine | FALSE |
| CC[C@H](C)[C@H](N)C(=O)OC[C@H]1O[C@@H](n2cnc3c(N)ncnc32)[C@@H](O)[C@@H]1O | Intestine | TRUE |
| CC[C@H](C)[C@@H](N)C(=O)OC[C@H]1O[C@@H](n2cnc3c(N)ncnc32)[C@@H](O)[C@@H]1O | Intestine | TRUE |
| CC(C)C[C@@H](N)C(=O)OC[C@H]1O[C@@H](n2cnc3c(N)ncnc32)[C@@H](O)[C@@H]1O | Intestine | FALSE |
| CC(C)C[C@H](N)C(=O)OC[C@H]1O[C@@H](n2cnc3c(N)ncnc32)[C@@H](O)[C@@H]1O | Intestine | FALSE |
| COC(=O)[C@H](NP(=O)(OC[C@H]1O[C@@H](n2cnc3c(N)ncnc32)[C@@H](O)[C@@H]1O)Oc1ccccc1)C(C)C (stereo not given in full) | Intestine | TRUE |
| Nc1ncnc2c1ncn2[C@@H]1O[C@H](COC(=O)[C@@H](N)Cc2ccccc2)[C@@H](O)[C@@H]1O | Intestine | FALSE |
| Nc1ncnc2c1ncn2[C@@H]1O[C@H](COC(=O)[C@H](N)Cc2ccccc2)[C@@H](O)[C@@H]1O | Intestine | TRUE |

----------
- Tested on: Cowpox virus
- method: Antiviral activity against Cowpox virus infected in human foreskin fibroblasts by plaque assay
- Format: functional, organism-based
pEC50: −log10 of the molar value.

| smiles | tested target | pEC50 |
| --- | --- | --- |
| Nc1ncnc2c1ncn2[C@@H]1O[C@H](CO)[C@@H](O)[C@@H]1O | Cowpox virus | 4.90 |
| CC(C)[C@@H](N)C(=O)OC[C@H]1O[C@@H](n2cnc3c(N)ncnc32)[C@@H](O)[C@@H]1O | Cowpox virus | 5.10 |
| Nc1ncnc2c1ncn2[C@@H]1O[C@H](COC(=O)C[C@@H](N)C(=O)O)[C@@H](O)[C@@H]1O | Cowpox virus | 4.60 |
| Nc1ncnc2c1ncn2[C@@H]1O[C@H](COC(=O)[C@H](N)Cc2ccccc2)[C@@H](O)[C@@H]1O | Cowpox virus | 5.40 |
| CC[C@H](C)[C@@H](N)C(=O)OC[C@H]1O[C@@H](n2cnc3c(N)ncnc32)[C@@H](O)[C@@H]1O | Cowpox virus | 5.46 |
| CC(C)C[C@@H](N)C(=O)OC[C@H]1O[C@@H](n2cnc3c(N)ncnc32)[C@@H](O)[C@@H]1O | Cowpox virus | 5.60 |
| Nc1ncnc2c1ncn2[C@@H]1O[C@H](COC(=O)[C@@H](N)Cc2ccccc2)[C@@H](O)[C@@H]1O | Cowpox virus | 5.46 |
| CC[C@H](C)[C@H](N)C(=O)OC[C@H]1O[C@@H](n2cnc3c(N)ncnc32)[C@@H](O)[C@@H]1O | Cowpox virus | 5.60 |
